Items are presented alongside their recorded logD.
- assay-notes: Log D shake flask method (octanol / PBS pH 7.4, HPLC)
- Type: physicochemical
- test-context: octanol/phosphate-buffered saline (PBS); octanol / PBS pH 7.4, shake flask

Example results:
COC(=O)/C=C/CC[C@H](NC(=O)c1cc(Br)sc1Br)C(=O)Nc1cccn(CC(=O)NC2C3CC4CC(C3)CC2C4)c1=O (some centres unmarked) [III-16] = 3 to 5
COC(=O)/C=C/CC[C@H](NC(=O)c1cc(Cl)sc1Cl)C(=O)Nc1cccn(CC(=O)NC2C3CC4CC(C3)CC2C4)c1=O (some centres unmarked) [III-13] = 3 to 5

## Input Using the record for COC(=O)/C=C/CC[C@H](NC(=O)c1cncn1C)C(=O)Nc1cccn(CC23CC4CC(CC(C4)C2)C3)c1=O [III-78] , report its logD.
## Output 3 to 5

## Input Same read-out for COC(=O)/C=C/CC[C@H](NC(=O)c1ncn(C)n1)C(=O)Nc1cccn(CC(=O)NC2C3CC4CC(C3)CC2C4)c1=O (some centres unmarked) [III-105] ?
## Output 1 to 3

## Input Same read-out for COC(=O)/C=C/CC[C@H](NC(=O)c1cccnc1)C(=O)Nc1cccn(CC(=O)NC2C3CC4CC(C3)CC2C4)c1=O (some centres unmarked) [III-83] ?
## Output 3 to 5

## Input Same read-out for COC(=O)/C=C/CC[C@H](NC(=O)c1sc(C(F)(F)F)nc1C)C(=O)Nc1cccn(CC(=O)N[C@H]2C[C@H]3CC[C@]2(C)C3(C)C)c1=O [III-127] ?
## Output 3 to 5

## Input Same read-out for COC(=O)/C=C/CC[C@H](NC(=O)c1cnnn1C)C(=O)Nc1cccn(CC(=O)NC23CC4(C)CC(C)(CC(C)(C4)C2)C3)c1=O [III-93] ?
## Output 1 to 3

## Input Same read-out for Cn1ccnc1C(=O)N[C@@H](CC/C=C/C(=O)c1ccccc1)C(=O)Nc1cccn(CC(=O)NC23CC(C2)C3)c1=O [III-157] ?
## Output 1 to 3

## Input Same read-out for COC(=O)/C=C/CC[C@H](NC(=O)c1cncn1C)C(=O)Nc1cccn(CC(=O)N[C@H]2C[C@H]3CC[C@]2(C)C3(C)C)c1=O [III-60] ?
## Output 3 to 5

## Input Same read-out for CCc1c(C(=O)N[C@@H](CC/C=C/C(=O)NC2CCCC2)C(=O)Nc2cccn(CC(=O)NC34CC(C3)C4)c2=O)oc2ccccc12 [III-147] ?
## Output 1 to 3

## Input Same read-out for COC(=O)/C=C/CC[C@H](NC(=O)c1oc2ccccc2c1Cl)C(=O)Nc1cccn(CC(=O)NC2C3CC4CC(C3)CC2C4)c1=O (some centres unmarked) [III-3] ?
## Output 3 to 5

## Input Same read-out for COC(=O)/C=C/CC[C@H](NC(=O)c1oc2ccccc2c1C)C(=O)Nc1cccn(CC(=O)NC23CC4CC(CC(Cl)(C4)C2)C3)c1=O [III-52] ?
## Output 3 to 5

## Input Same read-out for COC(=O)/C=C/CC[C@H](NC(=O)c1snnc1C)C(=O)Nc1cccn(CC(=O)N[C@@H]2C[C@H]3CC[C@@H]2C3)c1=O [III-110] ?
## Output 1 to 3

## Input Same read-out for CCN(CC)C(=O)/C=C/CC[C@H](NC(=O)[C@@H]1CN2CCN1CC2)C(=O)Nc1cccn(CC(=O)NC23CC(C2)C3)c1=O [III-139] ?
## Output < 1

## Input Same read-out for COC(=O)/C=C/CC[C@H](NC(=O)c1ncc(OC)o1)C(=O)Nc1cccn(CCC(=O)NC2C3CC4CC(C3)CC2C4)c1=O (some centres unmarked) [III-133] ?
## Output 3 to 5

## Input Same read-out for COC(=O)/C=C/CC[C@H](NC(=O)c1oc2ccccc2c1C)C(=O)Nc1cccn(CC(=O)NC2C3CC4CC2CC(O)(C4)C3)c1=O (some centres unmarked) [III-38] ?
## Output 1 to 3

## Input Same read-out for COC(=O)/C=C/CC[C@H](NC(=O)c1cncc(C(=O)OC)c1)C(=O)Nc1cccn(CC(=O)NC2C3CC4CC(C3)CC2C4)c1=O (some centres unmarked) [III-36] ?
## Output 3 to 5

## Input Same read-out for COC(=O)/C=C/CC[C@H](NC(=O)c1csc2ccccc12)C(=O)Nc1cccn(CC(=O)NC2C3CC4CC(C3)CC2C4)c1=O (some centres unmarked) [III-107] ?
## Output 3 to 5

## Input Same read-out for COC(=O)/C=C/CC[C@H](NC(=O)c1c[nH]cn1)C(=O)Nc1cccn(CC(=O)NC2C3CC4CC(C3)CC2C4)c1=O (some centres unmarked) [III-28] ?
## Output 3 to 5

## Input Same read-out for COC(=O)/C=C/CC[C@H](NC(=O)c1cnc(C(C)C)o1)C(=O)Nc1cccn(CC(=O)NC23CCC(C2)C3)c1=O [III-134] ?
## Output 1 to 3

## Input Same read-out for COC(=O)/C=C/CC[C@H](NC(=O)c1snnc1C)C(=O)Nc1cccn(CC(=O)N[C@@H]2C[C@@H]3CC[C@H]2C3)c1=O [III-115] ?
## Output 1 to 3
